PROCEDURE SUMMARY: qHTS Assay for Lipid Storage Modulators in Drosophila S3 Cells
STUDY CONDITIONS: BODIPY lipid droplet fluorescence, 18-24 h, cells fed with added oleic acid; series mostly up to 46.1 µM
Screen size: about 320,000 compounds; about 2,100 (0.66%) were called active. Roughly 53% stayed inconclusive and do not appear here. Calls follow the shape of the dose curve; as a rule, active = well fitted inhibition curve with a large enough effect in the signal ratio, with a control signal flat (not every such curve was filed as active); inconclusive = small, poorly fitted or top-dose-only effect, or effect the other way, or a change in a side signal; inactive = flat fitted curve, though single readings scatter; the % refers to the signal ratio. Many of the other results were omitted from the sample, so actives are more common in it than they were.
Tick one outcome: active, inactive

Solved cases (2 shown):
{"columns": ["MOLECULE", "CLASS NAME"],
 "data": [
  ["COc1ccc(CC(=O)OCC(=O)N2CCCc3ccccc32)cc1", "inactive"],
  ["COc1ccc(Cn2nnc3c(=O)[nH]c(C4CCN(S(=O)(=O)c5ccc(C)cc5)CC4)nc32)cc1", "active"]
]}

Would you kindly look at the next entry?
# lookup: test call for COc1cnc(-c2ccccc2)nc1Oc1ccccc1C
active

* * *

Please provide measured cell number change for the entries that follow.
PROCEDURE SUMMARY: qHTS Assay for Lipid Storage Modulators in Drosophila S3 Cells;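 as to cell number change: cells counted by Cell Tracker Red CMTPX staining in the red channel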
STUDY CONDITIONS: BODIPY lipid droplet fluorescence, 18-24 h, cells fed with added oleic acid; measured here: cell count max response
The whole screen tested about 320,000 compounds, of which about 2,100 (0.66%) were called active. About 53% were inconclusive and are not listed. What follows is part of a selection rich in actives, with near analogues and random picks from the rest.
Answers are plain numbers, in %.

{"columns": ["COMPOUND", "REPORTED"],
 "data": [
  ["O=C(CN1C(=O)C(=O)N(C2CCCC2)C1=O)NCCc1ccc(Cl)cc1Cl", -0.378],
  ["Cc1ccc(NC(=O)C2(c3ccccc3)CCOCC2)cc1", 16.3],
  ["COc1cc(/C=C2/C(=N)N3N=C(C)SC3=NC2=O)ccc1OS(=O)(=O)c1ccc(C)cc1", -5.04]
]}

Provide each entry's cell number change from the list below.
1. C1CCC(Nc2nc3nonc3nc2N2CCSCC2)C1
2. O=C(NCCCN1CCOCC1)c1ccccc1
3. O=C(CN1CC(=O)Nc2ccccc21)NCCc1ccc(Cl)cc1Cl
4. O=C(NCCCN1CCOCC1)C(=O)NCCc1ccccc1

-7.42
-23.2
-5.87
-0.52

Dear colleague, could you send me cell number change for each of the items below? Thanks.
1. O=C(Nc1ccccc1C(=O)NCCCN1CCOCC1)c1ccccc1
2. CCn1c(C)c(C)c2cc(C(=O)NCCN3CCOCC3)ccc21
3. O=C(NCCCN1CCOCC1)C1(c2ccccc2)CCOCC1
4. COc1ccc(CCNC(=O)C(=O)NCC2OCCN2S(=O)(=O)c2cccs2)cc1 (stereo unspecified)

1: 15.2; 2: -16.2; 3: 2.27; 4: 0.232

* * *

PROCEDURE SUMMARY: qHTS Assay for Lipid Storage Modulators in Drosophila S3 Cells
STUDY CONDITIONS: BODIPY lipid droplet fluorescence, 18-24 h, cells fed with added oleic acid; series mostly up to 46.1 µM
Text: NIH Molecular Libraries Probe Production Centers Network [MLPCN] NIH Chemical Genomics Center [NCGC] […] Triacsin C (Sigma-Aldrich T-4540), an inhibitor of long-chain fatty acyl CoA synthetase that blocks synthesis of triglycerides, was used as a positive control for lipid under-storage. […] Fluorescence was detected by excitation of the fluorophores with a 488-nm laser on an Acumen Explorer (TTP Lab Tech). […] Cells were detected using channel 3 (575-640 nm) with 5-um width and 100-um depth filters. […]
Hit rate of the full screen: of about 320,000 compounds, about 2,100 (0.66%) were called active. Roughly 53% stayed inconclusive and do not appear here. The call rests on the fitted dose curve; in most records, active means well fitted inhibition curve with a large enough effect in the signal ratio, with a control signal flat (not every such curve was filed as active); inconclusive means small, poorly fitted or top-dose-only effect, or effect the other way, or a change in a side signal; inactive means flat fitted curve, though single readings scatter; the % refers to the signal ratio. The sample holds actives, similar compounds and a random draw of the others, so the mix is not that of the screen.
Mark one answer only. Choices: active, inactive

Below are worked cases with known answers.
{"columns": ["MOLECULE", "CLASS NAME"],
 "data": [
  ["CN(C(=O)/C=C/c1ccc([N+](=O)[O-])s1)c1ccccc1", "inactive"],
  ["Cc1nn(CCCC(=O)NCc2ccc(Cl)cc2)c(C)c1[N+](=O)[O-]", "inactive"],
  ["Cc1c(OCC(=O)NCCCN2CCOCC2)ccc2c3c(c(=O)oc12)CCC3", "inactive"],
  ["CCCCc1cc(=O)oc2c(C)c(OCC(=O)NCCN3CCOCC3)ccc12", "active"],
  ["CC1Cc2ccccc2N1C(=O)CNCCCN(C)C (configuration not stated)", "active"]
]}

What call does the record list for COc1ccc(NC(=O)/C=C/c2ccc(Br)o2)cn1 ?
inactive

Returns: the outcome recorded for Cc1c(OCC(=O)NCCCN2CCCC2=O)ccc2c3c(c(=O)oc12)CCCC3 in this assay.
active

Could you check what this test reported for CCOC(=O)c1sc(=NC(=O)c2ccc(OC)c(OC)c2)n(C)c1C ?
inactive

Identify the outcome logged in this assay for the molecule shown: CC(=O)c1cccc(N(CC(=O)NC2CCCCC2)C(=O)CNC(=O)c2cccs2)c1
inactive

In this assay, the call recorded for CCc1cc(=O)oc2cc(OCC(=O)NCCCN3CCCC3=O)ccc12 was what?
inactive

Which result was noted for this molecule in the test: Cc1cc(C(=O)Nc2c(C)nn(Cc3ccc(Cl)cc3)c2C)no1
inactive

Fill in: this test's call for CC1Cc2ccccc2N1C(=O)CSc1ccccc1 (configuration not stated) is ___
inactive

What outcome does the record of this test show for Cc1cc(=O)oc2cc(OCC(=O)NCCCN3CCCC3=O)c(Cl)cc12 ?
inactive

How did this test come out for Cc1nn(Cc2ccc(Cl)cc2)c(C)c1NC(=O)CCCn1nc([N+](=O)[O-])c(Cl)c1C ?
inactive

Hi, sorry to bother you, what did the test record for O=C(Nc1ccc(Cl)cc1)Nn1cnnc1 ?
inactive

Please let me know the test result on file for Cn1c(=O)n(C)c2cc(CN3C(=O)OC(C)(C)C3(C)O)ccc21 (configuration not stated) .
inactive

So what was the verdict on CC(Oc1cc2oc(=O)c3c(c2cc1Cl)CCC3)C(=O)NCCCN1CCOCC1 (configuration not stated) in this test?
inactive

Please let me know the test result on file for CC(Oc1cc2oc(=O)c3c(c2cc1Cl)CCC3)C(=O)NCCN1CCOCC1 (configuration not stated) .
inactive

Assay outcome for O=C(c1ccc(=O)[nH]c1)N1CCN(S(=O)(=O)c2ccc3ccccc3c2)CC1 : what was it?
inactive

What call does the record list for Cc1cccc(NC(=O)/C=C/c2ccc([N+](=O)[O-])s2)c1 ?
active

Which result was noted for this molecule in the test: CCc1cc(=O)oc2cc(OCC(=O)NCCCN3CCCC3=O)c(Cl)cc12
active

Just curious, what result did Cc1cc(=O)oc2c(C)c(OCC(=O)NCCCN3CCCC3=O)ccc12 get here?
inactive
